System: HT29 colon
Experiment: NCI-60 one-dose screen, 48 h (100 = growth as untreated, 0 = no growth, -100 = all killed)
Details: 10 µM unless noted
The panel holds about 83,000 compounds, 20% with a hit somewhere; the sample as a whole holds those more often.
growth: recorded values
Supply the numeric figure in %, leaving out any unit text.

Reference set, count: 3
>>> experimental_result("CNc1sc(S(=O)(=O)NC)nc1S(=O)(=O)c1ccc(C)cc1")
107
>>> experimental_result("Cc1ncn(-c2ccc(/C=N/Nc3ccnc4cc(Cl)ccc34)cc2)c1C")
-77.5
>>> experimental_result("COc1ccc(/C=N/NC(=O)CSc2nc(-c3cnccn3)cc(-c3cccs3)c2C#N)cc1OC")
60.9

Challenge: Quickly give me recorded growth for "CNC(=O)c1cc(N2CCc3cc(NC(=O)Nc4ccc(N5CCOCC5)c(C(F)(F)F)c4)ccc32)ccn1"
Response given: 28.5

###

growth for assorted molecules
Test system: M14 melanoma
Assay: NCI-60 one-dose screen, 48 h (100 = growth as untreated, 0 = no growth, -100 = all killed)
Settings: 10 µM unless noted
Compounds without any hit were thinned out: in the full panel of roughly 83,000, 20% have a hit.
Record the value in %, omitting the unit from your answer.

>>> experimental_result("Cc1ccc2c(n1)C(=O)C(Cl)=C(Nc1ccccc1C(=O)OC(C)(C)C)C2=O")
-10.6
>>> experimental_result("CN(C)c1ccc(-c2cc(-c3c[nH]c4ccccc34)nc(N)c2C#N)cc1")
-27.1
>>> experimental_result("COc1ccc(C(=O)c2c(N)c(C#N)cn2-c2ccc(Cl)cc2Cl)cc1")
91.2

Field: next molecule
Challenge: Annotate the molecule CCOP(=O)(OCC)OC[C@]12CC[C@@H](C)[C@H](C)C1C1=CC[C@@H]3[C@@]4(C)CCCNC(C)(C)[C@@H]4CC[C@@]3(C)[C@]1(C)CC2 (some centres not stated) with its measured growth.
Response given: -65.7

###

System: SK-MEL-28 melanoma
Assay: NCI-60 one-dose screen, 48 h (100 = growth as untreated, 0 = no growth, -100 = all killed)
Conditions: 10 µM unless noted
Description: Growth inhibition of the SK-MEL-28 human tumor cell line is measured as a screen for anti-cancer activity. Cells are grown in 96 well plates and exposed to the test compound for 48 hours. Compounds are tested at a single concentration, which is 10^-5 M for most compounds. The reported endpoint is percent growth (GI% or GIPRCNT), where numbers from 0 - 100% represent growth inhibition, and numbers from -100% - 0 represent cell death. For example, a value of 40 represents 60% growth inhibition. […]
The panel holds about 83,000 compounds, 20% with a hit somewhere; the sample as a whole holds those more often.
metric.name: growth (%)
Field format: number, assumed %, no unit text.

>>> experimental_result("O=C(CCl)Nc1ccc(NC(=O)c2cc(Cl)ccc2O)c(Cl)c1")
88.5

Challenge: Given "N/C(=N\C(N)=N\c1nc2ccccc2s1)c1ccc(Cl)cc1" , respond with its growth.
Response given: 95.5

Challenge: Consider the compound "CCCCOc1ccc(S(=O)(=O)N2CCN(c3nc(C)cc(N4CCOCC4)n3)CC2)cc1" . State its measured growth.
Response given: -2.33

Challenge: Entry CCC1=Cc2c(OC)cccc2OC12C=Cc1c(OC)cccc1O2 (stereo not drawn) needs its growth filled in; supply it.
Response given: 52

Challenge: Give growth for the following compound: "CN1CCN(CC#CCn2c3c(c4ccccc42)C[C@]2(C)[C@H]4CC=C5[C@@H]6CC(C)(C)CC[C@]6(C(=O)N6CCOCC6)CC[C@@]5(C)[C@]4(C)CC[C@H]2C3(C)C)CC1"
Response given: 92.1

Challenge: Identify measured growth corresponding to "NC(=O)c1ncn2c(=O)n(CCF)nnc12"
Response given: 87

Challenge: Using known records, supply growth for "COc1ccc(NC(=O)CCCCCCNC(=O)C(O)(O)C(F)(F)F)cc1"
Response given: 40

Challenge: Determine from records and report growth for "Cn1cc(-c2nnc(N)nc2-c2c[nH]c3ccc(F)cc23)c2cc(Br)ccc21"
Response given: 60.4

###

System: OVCAR-8 ovarian
Experiment: NCI-60 one-dose screen, 48 h (100 = growth as untreated, 0 = no growth, -100 = all killed)
Conditions: 10 µM unless noted
This is part of a sample that, as a whole, favours compounds with a hit. Of some 83,000 tested, about 20% had one in any assay.
Binary label based on growth with cut-off 40%: below gives condition met, not below gives condition not met.

Before answering, review these 4 worked examples.
>>> discrete_label("NNc1nnc2nc(Nc3ccccc3)nc(Nc3ccc(S(N)(=O)=O)cc3)n12")
"condition not met"
>>> discrete_label("NC1=NC2(CCCC2)N(c2ccc(S(=O)(=O)Nc3nccs3)cc2)C(N)=N1")
"condition not met"
>>> discrete_label("CNC(=O)c1cc(N2CCc3cc(NC(=O)Nc4ccc(N5CCOCC5)c(C(F)(F)F)c4)ccc32)ccn1")
"condition met"
>>> discrete_label("CC1=C(C)C(=O)C(Nc2ccc(C)c(C)c2)=C(Br)C1=O")
"condition not met"

Challenge: Please determine if "COc1cc(/C=N\NC(=O)c2ccc3nc(-c4ccc(Br)cc4)[nH]c3c2)cc(OC)c1OC" is below 40% in terms of growth.
Response given: condition not met

Challenge: Quick check: does "CN1CCN(c2ccc(Nc3nc(NCCNS(=O)(=O)c4ccccc4)c4sccc4n3)cc2)CC1" have growth under 40%?
Response given: condition not met

Challenge: Please determine if "COc1ccc2sc(NC(=O)CCCCCCNC(=O)C(O)(O)C(F)(F)F)nc2c1" is below 40% in terms of growth.
Response given: condition met

Challenge: Consider "O=C(Nc1ccc(Cl)c(C(F)(F)F)c1)Nc1ccc2c(ccn2C(=O)c2cccc(F)c2)c1" . Does its growth lie strictly below 40%?
Response given: condition met

Challenge: Consider "COc1cc(C(=O)c2cc(C(C)=O)c3c(C)cccn23)cc(OC)c1OC" . Does its growth lie strictly below 40%?
Response given: condition not met

Challenge: For "CCc1cc(O)ccc1Nc1cc(-c2ccc(-n3cccn3)cc2)[nH]n1" , is the recorded growth below the cut-off of 40%?
Response given: condition not met

Challenge: Field: below-cutoff. Rule: recorded growth strictly less than 40%. Subject: "CCNC(=O)Oc1ccc(/C(=C(/C)c2ccc(OC)cc2)c2ccc(OCCN3CCCCCC3)cc2)cc1"
Response given: condition not met

Challenge: Given the entry "Cc1ccccc1NC(=O)Nc1nc2ccc([N+](=O)[O-])cc2s1" , would its reported growth be below 40%?
Response given: condition met

###

Test system: COLO 205 colon
Test: NCI-60 one-dose screen, 48 h (100 = growth as untreated, 0 = no growth, -100 = all killed)
Conditions: 10 µM unless noted
Experimental: Cells are grown in 96 well plates and exposed to the test compound for 48 hours. Compounds are tested at a single concentration, which is 10^-5 M for most compounds. The reported endpoint is percent growth (GI% or GIPRCNT), where numbers from 0 - 100% represent growth inhibition, and numbers from -100% - 0 represent cell death. For example, a value of 40 represents 60% growth inhibition. A value of 0 means no net growth occurred over the course of the experiment. […]
This is part of a sample that, as a whole, favours compounds with a hit. Of some 83,000 tested, about 20% had one in any assay.
metric.name: growth (%)
Field format: number, assumed %, no unit text.

Below are worked cases with known answers.
>>> experimental_result("NNc1nnc2nc(Nc3ccccc3)nc(Nc3ccc(S(N)(=O)=O)cc3)n12")
105
>>> experimental_result("CCc1cc2c(cc1Cl)nc1c(=O)[nH]c(=O)nc-1n2CCOCC(C)C")
21.3
>>> experimental_result("N#Cc1c(-c2cccs2)cc(-c2cnccn2)nc1SCC(=O)N/N=C/c1ccncc1")
118
>>> experimental_result("COc1cc2cc(Oc3ccc(NC(=O)c4cc(C(F)(F)F)cc(C(F)(F)F)c4)cc3)c(C)nc2cc1OCCN1CCOCC1")
66.7
>>> experimental_result("N#Cc1c(-c2cccs2)cc(-c2cnccn2)nc1SCC(=O)N/N=C/c1cccs1")
53.5
>>> experimental_result("Cc1ccc2c(n1)C(=O)C(Cl)=C(Nc1ccccc1C(=O)OC(C)(C)C)C2=O")
-66.1

Challenge: Please give measured growth of the following entry: "CNC(=O)Nc1ccc(Nc2cc(-c3ccc(-n4cccn4)cc3)[nH]n2)c(C)c1"
Response given: 124

Challenge: Please supply the value of reported growth for the item "N/C(=N\C(N)=N\c1nc2ccccc2s1)c1ccc(Cl)cc1"
Response given: 104

Challenge: Let me know recorded growth for "CN1CCN(Cc2ccc(NC(=O)c3cncc(C#Cc4cnc5ccc(N)nn45)c3)cc2C(F)(F)F)CC1" , thanks.
Response given: -41.8

Challenge: Please indicate growth recorded for "COc1ccc(-c2cnc(NC(=O)CCCCCCNC(=O)C(O)(O)C(F)(F)F)s2)cc1"
Response given: -70.8

Challenge: Return growth (reported value) for this molecule: "CC1=C(C)C(=O)C(Nc2ccc(C)cc2)=C(Br)C1=O"
Response given: 124

Challenge: Given CCOP(=O)(OCC)OC[C@]12CC[C@@H](C)[C@H](C)C1C1=CC[C@@H]3[C@@]4(C)CCCNC(C)(C)[C@@H]4CC[C@@]3(C)[C@]1(C)CC2 (stereo partly drawn) , respond with its growth.
Response given: -50.7

Challenge: Identify the reported growth for the following entry. "Cc1ccsc1[C@H]1c2[nH]c3ccccc3c2C[C@H]2C(=O)N(CCCCCCC(=O)NO)CC(=O)N12"
Response given: 96.5
